study target: T1, Human recombinant soluble TWEAK (human, UniProt O43508 99-249, limits assumed)
T1 sequence (looked up): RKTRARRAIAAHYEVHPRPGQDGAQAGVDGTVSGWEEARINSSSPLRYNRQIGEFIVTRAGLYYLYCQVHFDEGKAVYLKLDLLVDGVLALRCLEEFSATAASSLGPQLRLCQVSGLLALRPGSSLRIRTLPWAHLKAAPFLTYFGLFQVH
protocol text: cell-based or functional assay
Recorded IL-8 Secretion IC50, one value per entry.
outcome measure: IL-8 Secretion IC50 (µg/mL)

binder	unit abbrev	value
Antibody 22 (antibody, V domains shown) VH: QVQLQESGPGLVKPSETLSLTCAVSGYSIRSGYWWSWIRQPPGKGLEWIGQIYNKGNTDNSPSLKSRVTISVDTSKNQFSLKLSSVTAADTAVYYCARVFWDDAYFDVWGQGTMVTVSS VL: EIVLTQSPGTLSLSPGERATLSCKASQSVSIGPIHLMHWYQQKPGQAPRLLIYGASNPESGIPDRFSGSGSGTDFTLTISRLEPEDFAVYYCQQGKESPRTFGQGTKLEIK	µg/mL	0.249
Antibody 15 (antibody, V domains shown) VH: QVQLQESGPGLVKPSETLSLTCAVSGYSIRSGYWWSWIRQPPGKGLEWIGQIYNKGNTDNNPALKSRVTISVDTSKNQFSLKLSSVTAADTAVYYCARVFWDDAYFDVWGQGTMVTVSS VL: EIVLTQSPATLSLSPGERATLSCKASQSVSIGPIHLMHWYQQKPGQAPRLLIYGASNPESGIPARFSGSGSGTDFTLTISSLEPEDFAVYYCQQGKESPRTFGQGTKLEIK	µg/mL	0.141
Antibody 23 (antibody, V domains shown) VH: QVQLQESGPGLVKPSETLSLTCTVSGYSIRSGYWWSWIRQPPGKGLEWIGQIYNKGNTDNNPALKSRVTISVDTSKNQFSLKLSSVTAADTAVYYCARVFWDDAYFDVWGQGTMVTVSS VL: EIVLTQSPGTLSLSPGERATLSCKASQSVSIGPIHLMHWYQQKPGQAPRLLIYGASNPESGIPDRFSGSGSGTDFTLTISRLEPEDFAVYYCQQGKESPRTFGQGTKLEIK	µg/mL	0.242
Antibody 24 (antibody, V domains shown) VH: QVQLQESGPGLVKPSETLSLTCTVSGYSIRSGYWWSWIRQPPGKGLEWIGQIYNKGNTDNSPSLKSRVTISVDTSKNQFSLKLSSVTAADTAVYYCARVFWDDAYFDVWGQGTMVTVSS VL: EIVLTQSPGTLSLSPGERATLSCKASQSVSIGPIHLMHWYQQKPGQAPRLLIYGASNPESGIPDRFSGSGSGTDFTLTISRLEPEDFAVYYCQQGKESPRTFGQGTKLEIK	µg/mL	0.165
Antibody 18 (antibody, V domains shown) VH: QVQLQESGPGLVKPSETLSLTCTVSGYSIRSGYWWSWIRQPPGKGLEWIGQIYNKGNTDNSPSLKSRVTISVDTSKNQFSLKLSSVTAADTAVYYCARVFWDDAYFDVWGQGTMVTVSS VL: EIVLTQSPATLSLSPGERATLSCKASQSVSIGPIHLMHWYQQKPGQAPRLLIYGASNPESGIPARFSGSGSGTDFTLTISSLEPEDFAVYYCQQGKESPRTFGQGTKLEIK	µg/mL	0.189
Antibody 17 (antibody, V domains shown) VH: QVQLQESGPGLVKPSETLSLTCTVSGYSIRSGYWWSWIRQPPGKGLEWIGQIYNKGNTDNNPALKSRVTISVDTSKNQFSLKLSSVTAADTAVYYCARVFWDDAYFDVWGQGTMVTVSS VL: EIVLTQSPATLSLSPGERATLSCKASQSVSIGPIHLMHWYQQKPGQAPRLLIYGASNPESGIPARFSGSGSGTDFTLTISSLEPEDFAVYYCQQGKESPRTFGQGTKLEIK	µg/mL	0.146
